Measured on: T1, hu-sCD47-6His; extracellular domain of human CD47 antigen with 6His-tag (human)
T1 construct: also called hCD47-his; soluble hCD47
Protocol notes: SPR Biacore
Measure name: kon (M⁻¹ s⁻¹)

[
  {
    "Binder": "h20-H4-L4Y (candidate 20.29), hIgG4-S228P (antibody, V domains shown, also called H20-VH4-VL4,Y) VH: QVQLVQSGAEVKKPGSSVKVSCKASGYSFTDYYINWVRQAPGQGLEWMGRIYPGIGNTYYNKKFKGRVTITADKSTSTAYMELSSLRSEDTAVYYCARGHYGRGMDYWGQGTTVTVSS VL: DIVMTQSPDSLAVSLGERATINCKSSQSLLNSIDQKNYLAWYQQKPGQPPKLLIYYASTKESGVPDRFSGSGSGTDFTLTISSLQAEDVAVYFCQQHYSTPWTFGGGAKVEIKR",
    "Measure name": "kon",
    "Measurement unit": "M⁻¹ s⁻¹",
    "Test result": 306000
  }
]
